- experimentalTarget: Tom1 VHS domain (Homo sapiens)
- Construct: GST fusion from E. coli Rosetta, GST cut off with thrombin; monomer
- Sequence (O60784 1-140 limits assumed): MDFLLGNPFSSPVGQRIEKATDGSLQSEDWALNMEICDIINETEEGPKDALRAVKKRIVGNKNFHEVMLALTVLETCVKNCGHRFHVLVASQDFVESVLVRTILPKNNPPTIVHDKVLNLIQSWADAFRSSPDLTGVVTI
- assayProcedure: isothermal titration calorimetry
- Assay type: binding
readoutName: Kd (µM)
One number for each entry, in µM.

I would be grateful if you could share the reported Kd for O=P(O)(O)O[C@@H]1[C@@H](O)[C@H](OP(=O)(O)O)[C@H](O)[C@H](O)[C@H]1O [Ins(1,5)P2] .
214

====

- experimentalTarget: Tom1 VHS domain (Homo sapiens)
- Construct: GST fusion from E. coli Rosetta, GST cut off with thrombin; monomer
- assayProcedure: isothermal titration calorimetry
- Assay type: binding
- conditionInfo: high-affinity site of two-site fit; nonreducing; 20 mM HEPES pH 7.4, 150 mM KCl, 25 °C
readoutName: Kd (µM)
Numbers only, in µM.

I would be grateful if you could share the reported Kd for CCCCCCCC(=O)OC[C@H](COP(=O)(O)O[C@H]1[C@H](O)[C@@H](OP(=O)(O)O)[C@H](O)[C@@H](O)[C@H]1O)OC(=O)CCCCCCC [PtdIns5P] .
3.1

Where do these numbers come from? They come from paper PMC6659632.
